Taken from the RNAGym collection of RNA variant scans (doi:10.1073/pnas.2313332121).

Give measured polymerase ribozyme fitness (log ratio) for each item. Keep answers brief.
B1: TPR 5TU (parent)
chain: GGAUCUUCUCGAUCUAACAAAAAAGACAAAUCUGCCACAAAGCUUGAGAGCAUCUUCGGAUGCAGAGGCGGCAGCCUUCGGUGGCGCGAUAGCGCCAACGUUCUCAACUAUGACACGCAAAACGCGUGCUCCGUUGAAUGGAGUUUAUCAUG

- Variants of: B1
- assay-text: polymerase ribozyme fitness, log enrichment relative to wild type (log ratio); higher = more active; in vitro selection for triplet polymerase activity
Variants at the floor of the assay were thinned out.
Numbers only.

[[record]]
variant_notation = "U55G C87U U130C"
recorded_result = -0.00301

[[record]]
variant_notation = "U53A C63U C99G"
recorded_result = -3.81

[[record]]
variant_notation = "U55A C57U G84A G141C"
recorded_result = -0.559

[[record]]
variant_notation = "A26C U82A C95A"
recorded_result = -2

[[record]]
variant_notation = "A12G C14G C18U U31A U56G U101A"
recorded_result = -2.32


Give one value of polymerase ribozyme fitness (log ratio) per listed variant.
1. C93U G117C C125A
2. C114U U135C
3. G83U G112U
4. A24U A41U G86U

Solution:
-0.271
-2.95
-4
-3.62
